# System: EKVX NSCLC
# ASSAY TEXT: NCI tumour cell line growth inhibition, 48 h; in the data active = GI50 below about 0.43 µM; inactive = the rest
Permitted responses: y = active, n = inactive

INSERT INTO results (compound, tgt, class) VALUES
  ('CSc1ccc(-c2ccccc(=O)c2O)cc1', 'EKVX NSCLC', 'y'),
  ('Cc1cccc(-c2[nH]ncc2-c2ccc3ncccc3n2)n1', 'EKVX NSCLC', 'n'),
  ('c1ccc(N2N=C(c3cccc(Nc4ccncc4)c3)CC2c2ccc3c(c2)OCO3)cc1 (centres undefined)', 'EKVX NSCLC', 'n'),
  ('CC1(C)N=C(N)N=C(N)N1c1ccc(CCCCc2ccccc2)c(Cl)c1', 'EKVX NSCLC', 'y'),
  ('O=C1CC[C@H](N2C(=O)c3cccc4c(Cc5ccc(CN6CCOCC6)cc5)ccc2c34)C(=O)N1', 'EKVX NSCLC', 'n');

Task: Field: outcome | Entry: `COc1cc(/C=C2\C[C@H]3[C@@H]4CC=C5C[C@@H](O)CC[C@]5(C)[C@H]4CC[C@]3(C)[C@H]2O)ccc1OCCN1CCCC1`
Result: y

Task: Field: outcome | Entry: `Cc1ccc(Cl)cc1Nc1nc(C(F)(F)F)ccc1C(=O)N/N=C/c1cccnc1`
Result: n

Task: Field: outcome | Entry: `CN1CCC(COc2cnc(-c3cccc(Cn4nc(-c5cccc(C#N)c5)ccc4=O)c3)nc2)CC1`
Result: n

Task: Field: outcome | Entry: `N.N.NCCCCCN.O=C([O-])CCl.O=C([O-])CCl.O=C([O-])CCl.O=C([O-])CCl.[Pt+4].[Pt+4]`
Result: n

* * *

# maps each entry to its TGI
# System: KM12 colon
# ASSAY TEXT: NCI tumour cell line growth inhibition, 48 h

Below: 6 compounds and their reported TGI.
INSERT INTO measurements (compound, test_value) VALUES
  ('COc1nc2ccc(COc3ccc(C(=O)NC(CCC(=O)O)C(=O)O)cc3)cc2nc1OC (stereo not given)', '> 10 µM'),
  ('CC(=O)Nc1ccccc1-c1nc2ccccc2nc1C', '> 100 µM'),
  ('C=CCC(N[C@@H](CO)c1ccccc1)c1cn(Cc2ccccc2Cl)c(=O)n(Cc2ccccc2Cl)c1=O (stereo not given in full)', '> 100 µM'),
  ('CC(=O)C1C(=O)C(=O)N(c2ccccc2)C1=O (stereo not given)', '> 100 µM'),
  ('COc1ccc2sc3cccc(NCCN(C)C)c3c(=O)c2c1', '12.1 µM'),
  ('C(/C=C/c1ccccc1)=Nc1ccc2c(c1)Cc1ccccc1-2', '> 100 µM');

TGI measured on O=P1(Oc2ccccc2)N=P(c2ccccc2)(c2ccccc2)C=C(c2ccc(Cl)cc2)N1 (stereo not given) = 25.1 µM

TGI measured on COC(=O)C1=Cc2cc(OC)c(OC)c(OC)c2[C@H](c2cc(OC)c(OC)c(OC)c2)C1C(=O)OC (stereo not given in full) = > 100 µM

TGI measured on `CCOP(=O)(OCC)C(C)(C)N(C)/C(F)=N/C(F)(F)F` = > 100 µM

TGI measured on Cc1[nH]c(=O)nc2c1C(NCCCN(C)C)c1cc(Cl)ccc1N2 (stereo not given) = 30.3 µM

* * *

# maps each entry to its TGI
# Test system: NCI-H226 lung
# ASSAY TEXT: NCI tumour cell line growth inhibition, 48 h
*1 amine or outer side, *2 acyl side, *3 side chain or, on linkers, in order; H or OH if unused. Where a SMILES comes first, the peptide text is derived from it. [ ]: non-standard residue; d: D form. The star is where a group is joined. ξ: configuration not given here. X27 = O=C([C@H]1CCC[C@H]1N[*:1])[*:2]; ξW = NC(Cc1c[nH]c2ccccc12)C(=O)O; ξF = NC(Cc1ccccc1)C(=O)O; Boc = CC(C)(C)OC(=O)*; ξK = NCCCCC(N)C(=O)O; ξT = CC(O)C(N)C(=O)O; tBu = CC(C)(C)*

Below: 5 compounds and their reported TGI.
INSERT INTO results (compound, tgt, test_value) VALUES
  ('CCOC(=O)[C@@H](C)C[C@H](Cc1ccccc1)NC(=O)c1nc([C@@H](C[C@H](C(C)C)N(C)C(=O)[C@@H](NC(=O)[C@H]2CCCCN2C)C(C)C)OC(C)=O)sc1CCOCc1ccccc1', 'NCI-H226 lung', '1.05 µM'),
  ('O=[N+]([O-])c1ccc2nc(Cl)n[n+]([O-])c2c1', 'NCI-H226 lung', '42.2 µM'),
  ('CC(OC(C)(C)C)C1NC(=O)C(CCCCNC(=O)OC(C)(C)C)NC(=O)C(Cc2c[nH]c3ccccc23)NC(=O)C(Cc2ccccc2)NC(=O)[C@H]2CCC[C@H]2NC(=O)C(Cc2ccccc2)NC1=O (stereo partly drawn) (cyclo([X27][ξF][ξW][ξK](Boc)[ξT](tBu)[ξF]))', 'NCI-H226 lung', '> 100 µM'),
  ('COC1C(CO)OC(n2c3ccccc3c3c4c(c5c6ccccc6[nH]c5c32)C(=O)NC4=O)C(O)C1O (stereo not drawn)', 'NCI-H226 lung', '0.108 µM'),
  ('COc1ccccc1C1C(Cl)C(=O)N1n1cnc2ccccc2c1=O (stereo not drawn)', 'NCI-H226 lung', '> 100 µM');

TGI measured on COC(=O)CCC(NC(=S)N/N=C/c1ccccn1)C(=O)OC (stereo not drawn) = > 100 µM

TGI measured on `O=c1cc(-c2ccccc2)oc2ccc(OC/C(=N/O)c3ccccc3)cc12` = > 50 µM

TGI measured on `COc1ccc(N=C2S/C(=N\C(=Nc3ccccc3)SCc3ccccc3)N(c3ccccc3)C2=Nc2ccc(OC)cc2)cc1` = > 100 µM

TGI measured on O=C(c1cc2ccccc2[nH]1)N1C2CCC1CN(CCOC(c1ccc(F)cc1)c1ccc(F)cc1)CC2 (stereo not drawn) = > 100 µM

TGI measured on `O=C1NC(=S)N/C1=C\c1cc2c(=O)c3ccccc3sc2s1` = > 100 µM

TGI measured on `CC(C)N1CC2CN(Cc3ccccc3)CC(C1)C2=O` = > 100 µM

TGI measured on `O=c1ccn(CC2(CO)CCCC2)c(=O)[nH]1` = > 100 µM

TGI measured on `O=C(O)/C=C/C(=O)N1Cc2cc3ccccc3nc2C1` = > 100 µM

TGI measured on `COc1cccc2ccc(C(=O)c3ccccc3)nc12` = > 100 µM

TGI measured on COc1nc2ccc(COc3ccc(C(=O)NC(CCC(=O)O)C(=O)O)cc3)cc2nc1OC (stereo not drawn) = > 10 µM

TGI measured on `CC(=O)Nc1ccccc1-c1nc2ccccc2nc1C` = > 100 µM
